These data points were gathered from ChEMBL document CHEMBL1147331.

Experiment: Selectivity index, ratio of ED50 for human LNCaP cells to ED50 for chloroquine-resistant Plasmodium falciparum W2
Format: toxicity, cell-based
Settings: read-out: Ratio ED50
propertyMeasured: selectivity ratio

Use the examples below as a reference point.
compound: C=C[C@H]1CN2CC[C@H]1C[C@H]2[C@H](O)c1ccnc2ccc(OC)cc12
selectivity ratio: 649
--
compound: COc1ccc2cc1Oc1ccc(cc1)C[C@H]1c3c(cc(OC)c4c3Oc3cc5c(cc3O4)CCN=C5C2)CCN1C
selectivity ratio: 8
--
compound: COc1ccc2cc1Oc1ccc(cc1)C[C@H]1c3cc(c(OC)cc3CCN1C)Oc1c(OC)c(OC)cc3c1[C@@H](C2)N(C)CC3
selectivity ratio: 172
--
compound: COc1ccc2cc1Oc1ccc(cc1)C[C@H]1c3c(cc4c(c3Oc3cc5c(cc3OC)CCN[C@@H]5C2)OCO4)CCN1C
selectivity ratio: 23
--
compound: COc1ccc2cc1Oc1ccc(cc1)C[C@H]1c3c(cc(OC)c(OC)c3Oc3cc4c(cc3OC)CCN(C)[C@@H]4C2)CCN1C
selectivity ratio: 23
--
compound: COc1ccc2cc1Oc1ccc(cc1)C[C@H]1c3c(cc(OC)c(O)c3Oc3cc4c(cc3OC)CCN(C)[C@@H]4C2)CCN1C
selectivity ratio: 12
--
compound: OC(c1cc(C(F)(F)F)nc2c(C(F)(F)F)cccc12)C1CCCCN1 (centres undefined)
selectivity ratio: 1920
--
compound: COc1ccc2cc1Oc1ccc(cc1)C[C@H]1c3c(cc(OC)c(OC)c3Oc3cc4c(cc3OC)CCN[C@@H]4C2)CCN1C
selectivity ratio: 40

GET /value?item= COc1ccc2cc1Oc1ccc(cc1)C[C@H]1c3cc(c(OC)cc3CCN1C)Oc1c(OC)c(OC)cc3c1[C@@H](C2)NCC3 &field=selectivity ratio returns 91

The recorded selectivity ratio for COc1ccc2cc1Oc1ccc(cc1)C[C@H]1c3cc(c(OC)cc3CCN1C)Oc1c(O)c(OC)cc3c1[C@@H](C2)NCC3 is 53

compound COc1ccc2cc1Oc1ccc(cc1)C[C@H]1c3cc(c(OC)cc3CCN1C)Oc1c(O)c(OC)cc3c1[C@@H](C2)N(C)CC3 , selectivity ratio observed: 26

selectivity ratio measured on COc1ccc2cc1Oc1ccc(cc1)C[C@H]1c3c(cc(OC)c(O)c3Oc3cc4c(cc3OC)CCN[C@@H]4C2)CCN1C = 26

Reported selectivity ratio ( COc1ccc2cc1Oc1ccc(cc1)C[C@H]1c3c(cc(OC)c4c3Oc3cc5c(cc3O4)CCN(C)[C@@H]5C2)CCN1C ) = 8

GET /value?item= COc1ccc2cc1Oc1ccc(cc1)C[C@H]1c3c(cc4c(c3Oc3cc5c(cc3OC)CCN(C)[C@@H]5C2)OCO4)CCN1C &field=selectivity ratio returns 19
